Tested on: Escherichia coli
Assay Summary: Inhibition of growth of Escherichia coli vogel
Assay type: functional
Property Name: MIC
Answer format: number, then unit.

The cases that follow already have their MIC on record.
CN(C)CC1CCN(c2c(F)cc3c(=O)c(C(=O)O)cn4c3c2OCC42CC2)C1 (configuration not stated) :: 0.4 µg/mL
CC1COc2c(N3CCC(CN(C)C)C3)c(F)cc3c(=O)c(C(=O)O)cn1c23 (configuration not stated) :: 0.2 µg/mL
O=C(O)c1cn2c3c(c(N4CCNCC4)c(F)cc3c1=O)OCC21CC1 :: 0.8 µg/mL
CC1COc2c(N3CCNCC3)c(F)cc3c(=O)c(C(=O)O)cn1c23 (configuration not stated) :: 0.2 µg/mL
CCNCC1CCN(c2c(F)cc3c(=O)c(C(=O)O)cn4c3c2OCC42CC2)C1 (configuration not stated) :: 0.8 µg/mL

So what MIC did CC1COc2c(N3CCN(C)CC3)c(F)cc3c(=O)c(C(=O)O)cn1c23 (configuration not stated) get with Escherichia coli?
0.1 µg/mL

So what MIC did CCNCC1CCN(c2c(F)cc3c(=O)c(C(=O)O)cn4c3c2OCC4C)C1 (configuration not stated) get with Escherichia coli?
0.1 µg/mL

----------
System: Escherichia coli
Assay Summary: Inhibition of growth of Escherichia coli H560
Type: functional
Listing of recorded MIC by entry.
The reply should be a number in µg/mL, with the unit left off.

CN(C)CC1CCN(c2c(F)cc3c(=O)c(C(=O)O)cn4c3c2OCC42CC2)C1 (configuration not stated) :: 0.8

So what does the record say about MIC for CC1COc2c(N3CCN(C)CC3)c(F)cc3c(=O)c(C(=O)O)cn1c23 (configuration not stated) [OFLOXACIN] ?
0.05

So what does the record say about MIC for CC1COc2c(N3CCNCC3)c(F)cc3c(=O)c(C(=O)O)cn1c23 (configuration not stated) [DESMETHYL-OFLOXACIN] ?
0.1

So what does the record say about MIC for CCNCC1CCN(c2c(F)cc3c(=O)c(C(=O)O)cn4c3c2OCC4C)C1 (configuration not stated) ?
0.05

So what does the record say about MIC for "O=C(O)c1cn2c3c(c(N4CCNCC4)c(F)cc3c1=O)OCC21CC1" ?
0.4

So what does the record say about MIC for CC1COc2c(N3CCC(CN(C)C)C3)c(F)cc3c(=O)c(C(=O)O)cn1c23 (configuration not stated) ?
0.2

So what does the record say about MIC for CCNCC1CCN(c2c(F)cc3c(=O)c(C(=O)O)cn4c3c2OCC42CC2)C1 (configuration not stated) ?
1.6
